# Test system: PBMCs
# test method notes: Cytotoxicity in human PBMCs, XTT staining
# Format: cell-based
# condition details: Incubation Time 24 hours; 7 days in culture; read-out: TC50 (the source's name)

| molecule | CC50 |
| --- | --- |
| Cn1cnc([N+](=O)[O-])c1Sc1ccccc1C(=O)NCCC(N)=O [compound of formula (I)] | > 100 µM |

###

# test method notes: Cytotoxicity in human PBMCs, XTT staining
# Format: cell-based
# condition details: human, PHA-P stimulated PBMCs pooled from three donors; Incubation Time 0 hours; 7 days in culture; read-out: TC50
measured endpoint: CC50 at 7 days

| smiles | measured endpoint | observed value |
| --- | --- | --- |
| Cn1cnc([N+](=O)[O-])c1Sc1ccccc1C(=O)NCCC(N)=O | CC50 at 7 days | > 100 µM |
